settings: rat, in vivo, iv
Bridge positions count the residues as written; N and C are the ends. Square brackets hold non-standard residues; d marks the D form. Peptide text beside a SMILES is read from it. * marks the point of attachment. Piperazin2one(3S-Bu,6R-CO) = CCCC[C@@H]1NC[C@H](C(=O)*)NC1=O; X2 = N=C(N)NCCC[C@@H]1C(=O)N[C@@H](C(N)=O)CN1*; X1 = N=C(N)NCCC[C@H]1C(=O)N[C@@H](C(N)=O)CN1*; dNle = CCCC[C@@H](N)C(=O)O; Heptanoyl = CCCCCCC(=O)*
result.type: clearance (mL/min/kg)
Give the value, in units of mL/min/kg, as a plain number.

{"molecule": "CCCCCCC(=O)N[C@H]1CSSC[C@@H](C(=O)N[C@@H](Cc2ccc(O)cc2)C(=O)N2C[C@H](C(N)=O)NC(=O)[C@@H]2CCCNC(=N)N)NC(=O)[C@H](CO)NC(=O)[C@H]([C@@H](C)CC)NC(=O)[C@H](CCCNC(=N)N)NC(=O)[C@H](CC(=O)O)NC(=O)[C@@H](CCCC)NC(=O)[C@H](CCCNC(=N)N)NC(=O)CNC(=O)CNC(=O)[C@H](Cc2ccccc2)NC(=O)[C@H](Cc2c[nH]cn2)NC1=O [1-131] (Heptanoyl-CHFGGR[dNle]DRISCY-X1; disulfide 1-12)", "reading": 21}

**Query** GET /values?readout=clearance&item= CCCC[C@@H]1NC[C@H](C(=O)N[C@H]2CSSC[C@@H](C(=O)N[C@@H](Cc3ccc(O)cc3)C(=O)N3C[C@H](C(N)=O)NC(=O)[C@H]3CCCNC(=N)N)NC(=O)[C@H](CO)NC(=O)[C@H]([C@@H](C)CC)NC(=O)[C@H](CCCNC(=N)N)NC(=O)[C@H](CC(=O)O)NC(=O)[C@@H](CCCC)NC(=O)[C@H](CCCNC(=N)N)NC(=O)CNC(=O)[C@@H](C)NC(=O)[C@H](Cc3ccccc3)NC(=O)[C@H](Cc3c[nH]cn3)NC2=O)NC1=O [1-133] ({Piperazin2one(3S-Bu,6R-CO)}-CHF[dA]GR[dNle]DRISCY-X2; disulfide 1-12)
**Result** 12

----------
details: rat, in vivo, iv, 2 mg/kg
Bridge positions count the residues as written; N and C are the ends. Square brackets hold non-standard residues; d marks the D form. Peptide text beside a SMILES is read from it. * marks the point of attachment. Piperazin2one(3S-Bu,6R-CO) = CCCC[C@@H]1NC[C@H](C(=O)*)NC1=O; X1 = N=C(N)NCCC[C@H]1C(=O)N[C@@H](C(N)=O)CN1*; dNle = CCCC[C@@H](N)C(=O)O; Heptanoyl = CCCCCCC(=O)*; Nle = CCCC[C@H](N)C(=O)O
# label = y if half-life < 20 min else n

**Query** Field: below-cutoff. Rule: recorded half-life strictly less than 20 min. Subject: CCCCCCC(=O)N[C@H]1CSSC[C@@H](C(=O)N[C@@H](Cc2ccc(O)cc2)C(=O)N2C[C@H](C(N)=O)NC(=O)[C@@H]2CCCNC(=N)N)NC(=O)[C@H](CO)NC(=O)[C@H]([C@@H](C)CC)NC(=O)[C@H](CCCNC(=N)N)NC(=O)[C@H](CC(=O)O)NC(=O)[C@H](CCCC)NC(=O)[C@H](CCCNC(=N)N)NC(=O)CNC(=O)CNC(=O)[C@H](Cc2ccccc2)NC(=O)[C@H](Cc2c[nH]cn2)NC1=O [1-63] (Heptanoyl-CHFGGR[Nle]DRISCY-X1; disulfide 1-12)
**Result** y

**Query** Strictly below 20 min: is that where half-life of CCCC[C@@H]1NC[C@H](C(=O)N[C@H]2CSSC[C@@H](C(=O)N[C@@H](Cc3ccc(O)cc3)C(=O)N3C[C@H](C(N)=O)NC(=O)[C@@H]3CCCNC(=N)N)NC(=O)[C@H](CO)NC(=O)[C@H]([C@@H](C)CC)NC(=O)[C@H](CCCNC(=N)N)NC(=O)[C@H](CC(=O)O)NC(=O)[C@H](CCCC)NC(=O)[C@H](CCCNC(=N)N)NC(=O)CNC(=O)CNC(=O)[C@H](Cc3ccccc3)NC(=O)[C@@H](Cc3c[nH]cn3)NC2=O)NC1=O [1-28] ({Piperazin2one(3S-Bu,6R-CO)}-C[dH]FGGR[Nle]DRISCY-X1; disulfide 1-12) sits?
**Result** n

**Query** Consider the molecule CCCC[C@@H]1NC[C@H](C(=O)N[C@H]2CSSC[C@@H](C(=O)N[C@@H](Cc3ccc(O)cc3)C(=O)N3C[C@H](C(N)=O)NC(=O)[C@@H]3CCCNC(=N)N)NC(=O)[C@H](CO)NC(=O)[C@H]([C@@H](C)CC)NC(=O)[C@H](CCCNC(=N)N)NC(=O)[C@@H](CC(=O)O)NC(=O)[C@H](CCCC)NC(=O)[C@H](CCCNC(=N)N)NC(=O)CNC(=O)CNC(=O)[C@H](Cc3ccccc3)NC(=O)[C@H](Cc3c[nH]cn3)NC2=O)NC1=O [1-44] ({Piperazin2one(3S-Bu,6R-CO)}-CHFGGR[Nle][dD]RISCY-X1; disulfide 1-12) . Is its half-life strictly less than 20 min?
**Result** n

**Query** Hello, I'm reviewing records and need to know if half-life of CCCC[C@@H]1NC[C@H](C(=O)N[C@H]2CSSC[C@@H](C(=O)N[C@@H](Cc3ccc(O)cc3)C(=O)N3C[C@H](C(N)=O)NC(=O)[C@@H]3CCCNC(=N)N)NC(=O)[C@H](CO)NC(=O)[C@H]([C@@H](C)CC)NC(=O)[C@H](CCCNC(=N)N)NC(=O)[C@H](C)NC(=O)[C@H](CCCC)NC(=O)[C@H](CCCNC(=N)N)NC(=O)CNC(=O)CNC(=O)[C@H](Cc3ccccc3)NC(=O)[C@H](Cc3c[nH]cn3)NC2=O)NC1=O [1-35] is below 20 min. Could you check?
**Result** n

**Query** Quick check: half-life of CCCC[C@@H]1NC[C@H](C(=O)N[C@H]2CSSC[C@@H](C(=O)N[C@@H](Cc3ccc(O)cc3)C(=O)N3C[C@H](C(N)=O)NC(=O)[C@@H]3CCCNC(=N)N)NC(=O)[C@H](CO)NC(=O)[C@H]([C@@H](C)CC)NC(=O)[C@H](CCCNC(=N)N)NC(=O)[C@H](CC(=O)O)NC(=O)[C@H](CCCC)NC(=O)[C@@H](CCCNC(=N)N)NC(=O)CNC(=O)CNC(=O)[C@H](Cc3ccccc3)NC(=O)[C@H](Cc3c[nH]cn3)NC2=O)NC1=O [1-42] ({Piperazin2one(3S-Bu,6R-CO)}-CHFGG[dR][Nle]DRISCY-X1; disulfide 1-12) under 20 min?
**Result** y

**Query** Answer whether the molecule CCCC[C@@H]1NC[C@H](C(=O)N[C@H]2CSSC[C@@H](C(=O)N[C@@H](Cc3ccc(O)cc3)C(=O)N3C[C@H](C(N)=O)NC(=O)[C@@H]3CCCNC(=N)N)NC(=O)[C@H](C)NC(=O)[C@H]([C@@H](C)CC)NC(=O)[C@H](CCCNC(=N)N)NC(=O)[C@H](CC(=O)O)NC(=O)[C@H](CCCC)NC(=O)[C@H](CCCNC(=N)N)NC(=O)CNC(=O)CNC(=O)[C@H](Cc3ccccc3)NC(=O)[C@H](C)NC2=O)NC1=O [1-69] ({Piperazin2one(3S-Bu,6R-CO)}-CAFGGR[Nle]DRIACY-X1; disulfide 1-12) has half-life strictly less than 20 min
**Result** y

**Query** Decide: half-life of CCCC[C@@H]1NC[C@H](C(=O)N[C@H]2CSSC[C@@H](C(=O)N[C@@H](Cc3ccc(O)cc3)C(=O)N3C[C@H](C(N)=O)NC(=O)[C@@H]3CCCNC(=N)N)NC(=O)[C@H](CO)NC(=O)[C@H]([C@@H](C)CC)NC(=O)[C@H](CCCNC(=N)N)NC(=O)[C@H](CC(=O)O)NC(=O)[C@H](CCCC)NC(=O)[C@H](CCCNC(=N)N)NC(=O)CNC(=O)CNC(=O)[C@H](Cc3ccccc3)NC(=O)[C@H](Cc3c[nH]cn3)NC2=O)NC1=O [1-18] ({Piperazin2one(3S-Bu,6R-CO)}-CHFGGR[Nle]DRISCY-X1; disulfide 1-12) strictly below 20 min?
**Result** y

**Query** Say whether its half-life is strictly beneath 20 min. Entry: CCCC[C@@H]1NC[C@H](C(=O)N[C@H]2CSSC[C@@H](C(=O)N[C@@H](Cc3ccc(O)cc3)C(=O)N3C[C@H](C(N)=O)NC(=O)[C@@H]3CCCNC(=N)N)NC(=O)[C@H](CO)NC(=O)[C@H]([C@@H](C)CC)NC(=O)[C@H](CCCNC(=N)N)NC(=O)[C@H](CC(=O)O)NC(=O)[C@@H](CCCC)NC(=O)[C@H](CCCNC(=N)N)NC(=O)CNC(=O)CNC(=O)[C@H](Cc3ccccc3)NC(=O)[C@H](Cc3c[nH]cn3)NC2=O)NC1=O [1-43] ({Piperazin2one(3S-Bu,6R-CO)}-CHFGGR[dNle]DRISCY-X1; disulfide 1-12)
**Result** n
